Attribution: PubChem BioAssay (NCI)

procedure details: NCI Yeast Anticancer Drug Screen. Data for the sgs1 strain (AID 173);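 also: 0% = growth of vehicle-only control cultures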
condition set: S. cerevisiae sgs1 mutant, at 11.0 µM, stronger effect = higher value
Compounds without any hit were thinned out: in the full panel of roughly 79,000, 15% have a hit.
test readout: growth inhibition (%)

- molecule: "NC1=NS(=O)(=O)N=C(N)C1=Cc1ccc([N+](=O)[O-])o1"
  recorded value: 18
- molecule: "O=C(Cc1csc2[n+]1C(=O)/C(=C/c1ccc(Cl)cc1)S2)Nc1ccccc1"
  recorded value: 32
- molecule: "Clc1cccc(C(Nc2nncs2)Nc2nncs2)c1Cl"
  recorded value: 16
- molecule: "CC(C)=CC(=O)O[C@@H]1CC(C)(C)CC2C3=CCC4[C@]56CC[C@](O)(OC5)C(C)(C)C6CC[C@@]4(C)C3(C)CC[C@]21C(=O)O (stereo not given in full)"
  recorded value: 83
- molecule: "COc1ccc(NC(=S)N/N=C(\\c2ccccc2)c2ccccn2)cc1"
  recorded value: 0

* * *

procedure details: NCI Yeast Anticancer Drug Screen. Data for the mlh1 rad18 strain (AID 175)
condition set: S. cerevisiae mlh1 rad18 strain growth inhibition; at 50.0 µM (retest, dose inferred, filed as 5.0)
Experimental: Growth inhibition of yeast strains with defined genetic alterations is measured as a screen for potential anti-cancer activity. Selected strains with alterations in DNA damage repair or cell cycle control were exposed to compounds and growth inhibition was measured relative to vehicle treated controls. The strain used in this assay is mlh1 rad18
The panel holds about 79,000 compounds, 15% with a hit somewhere; the sample as a whole holds those more often. Calls of active or inactive are those of the source. No stated cut-off is given here; in the data, active means growth inhibition above about 70%; inactive means the rest.
Labels: active, inactive

- molecule: "Oc1c(Br)cc(Br)cc1C1CCCCC1"
  label: "active"
- molecule: "O=C1C2C(C(=O)N1c1ccc(OCc3ccccc3)cc1)C1c3ccccc3C2C2CCCCN21 (configuration not stated)"
  label: "inactive"
- molecule: "OC1(c2ccccc2)CSC2=Nc3ccccc3C3CCN1N23 (configuration not stated)"
  label: "active"
- molecule: "CCCCN1C(=O)N(c2ccc(OCC)cc2)C2N(CCCC)C1C(C)(C)C2(C)C (configuration not stated)"
  label: "active"
- molecule: "O=C1C=CC(=C(c2ccccc2)c2ccccc2)c2ccccc21"
  label: "active"
- molecule: "O=C1C2C=CC1C1C(=O)OC(=O)C21 (configuration not stated)"
  label: "inactive"
- molecule: "NNC(=O)CCc1ccc2ccc3ccccc3c2c1"
  label: "inactive"
- molecule: "O=[N+]([O-])c1cccc2nccc(NCCCO)c12"
  label: "active"
- molecule: "N#CN=Nc1cc(Cl)c(N=NC#N)cc1Cl"
  label: "active"
- molecule: "O=c1c2ccccc2ncn1COCc1ccccc1"
  label: "inactive"
- molecule: "O=C1C=CC(=Nc2ccc3c(c2)Cc2cc(NC(=O)C(F)(F)F)ccc2-3)O1"
  label: "active"
- molecule: "O=[N+]([O-])/C=C/c1ccc2ccccc2c1"
  label: "active"

* * *

procedure details: NCI Yeast Anticancer Drug Screen. Data for the rad18 strain (AID 177)
condition set: S. cerevisiae rad18 mutant growth inhibition; at 100.0 µM; stronger effect = higher value
This is part of a sample that, as a whole, favours compounds with a hit. Of some 79,000 tested, about 15% had one in any assay.
Our labelling divides records by growth inhibition into ranges: I: < 50%; II: ≥ 50% and < 90%; III: ≥ 90%

- molecule: "COc1ccc(/C(C)=N/OC(=O)c2c(-c3ccccc3Cl)noc2C)cc1CN1CCOCC1"
  label: "II"
- molecule: "c1ccc(-c2ccnc3c2ccc2c(-c4ccccc4)ccnc23)cc1"
  label: "III"
- molecule: "COc1ccc(Br)c(C(=O)Sc2nnnn2-c2cccc(Cl)c2)c1"
  label: "III"
- molecule: "NC(=S)N/N=C\\c1nccc2ccccc12"
  label: "III"
- molecule: "COc1cc2c3c(cccc3c1)C(=O)N(CCN(C)C)C2=O"
  label: "I"
- molecule: "CC1=C(C)Cc2c(O)ccc(O)c2C1"
  label: "III"
- molecule: "COCCOC(=O)CCn1cc(F)c(=O)[nH]c1=O"
  label: "II"
- molecule: "O=C(O)c1ccccc1NC(=S)c1ccccc1"
  label: "II"
- molecule: "Cc1ccc(NN(NC(=O)OC(C)C)C(=O)OC(C)C)cc1"
  label: "I"
- molecule: "FC(F)(F)c1cc(NC(=S)N2c3ccccc3-n3cccc3C2c2cccnc2)cc(C(F)(F)F)c1 (configuration not stated)"
  label: "I"
- molecule: "O=Nc1cccnc1N=O"
  label: "III"

* * *

procedure details: NCI Yeast Anticancer Drug Screen. Data for the rad52 strain (AID 147);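 also: 0% = growth of vehicle-treated control cultures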
condition set: S. cerevisiae rad52 mutant growth inhibition; at 1.2 µM
About 79,000 compounds went through this panel and 15% of them were active in at least one assay; those are over-represented in the sample as a whole. Active and inactive are the calls of the source. Cut-off read from the data, not from the text of the source: active = growth inhibition above about 70%; inactive = the rest.
Outcome codes: 1 (yes) for active, 0 (no) for inactive

- compound: "O=C(O)C1CCCCC1c1c2ccc(=O)c(O)c-2oc2c(O)c(O)ccc12 (stereo unspecified)"
  label: "0 (no)"
- compound: "CC(/C=C/c1ccc2c(c1)OCO2)[N+](=O)[O-] (stereo unspecified)"
  label: "0 (no)"
- compound: "O=C(Nc1ccccc1)OCCc1ccc(Cl)c(Cl)c1"
  label: "0 (no)"
- compound: "COc1cc(C(=O)/C=C/c2ccccc2O)ccc1O"
  label: "0 (no)"
- compound: "O=[N+]([O-])C(=C(Sc1ccccc1)Sc1ccccc1)C(Cl)=C(Cl)Cl"
  label: "0 (no)"
- compound: "NC1=NS(=O)(=O)N=C(N)C1=Cc1ccc([N+](=O)[O-])o1"
  label: "0 (no)"
- compound: "COc1ccc2ccc3ccccc3c2c1C=O"
  label: "0 (no)"
- compound: "O=[N+]([O-])c1cccc2nc3ccccc3c(NCCCN3CCOCC3)c12"
  label: "1 (yes)"
- compound: "O=[N+]([O-])CC(SCc1ccccc1)c1ccc2c(c1)OCO2 (stereo unspecified)"
  label: "0 (no)"
- compound: "O=C(/C=C/c1cccc(Br)c1)c1cccs1"
  label: "0 (no)"
- compound: "CN(C)CCOc1ccc2c(c1)C/C(=C/c1ncc([N+](=O)[O-])n1C)C2=O"
  label: "0 (no)"

* * *

procedure details: NCI Yeast Anticancer Drug Screen. Data for the mec2-1 strain (AID 157)
condition set: S. cerevisiae mec2-1 strain, at 50.0 µM (retest, dose inferred, filed as 5.0)
The panel holds about 79,000 compounds, 15% with a hit somewhere; the sample as a whole holds those more often. The source made the active and inactive calls. Rule as the data show it: active = growth inhibition above about 70%; inactive = the rest.
Possible outcomes: active, inactive

- molecule: "O=[N+]([O-])c1ccc([N+]2=NC(c3ccccc3)=NN(c3ccccc3)C2)cc1"
  label: "inactive"
- molecule: "S=C(Nc1ccc(Cl)c(Cl)c1)SCc1ccc2c(c1)OCO2"
  label: "active"
- molecule: "Oc1c(Br)cc(Br)cc1C1CCCCC1"
  label: "active"
- molecule: "O=C1C2CC[C@@H]3C(=O)C(Cl)(Cl)[C@@H]3CCC2C1(Cl)Cl (stereo not given in full)"
  label: "inactive"
- molecule: "Oc1ccc2ccccc2c1C(c1ccc(Cl)cc1)c1c(O)ccc2ccccc12"
  label: "active"
- molecule: "O=C1Nc2ccc(Cl)c(I)c2C1=O"
  label: "inactive"
- molecule: "Cc1ccc(-n2cc(-c3ccc(Cl)cc3)c(C#N)c2N)cc1"
  label: "inactive"
- molecule: "c1ccc2c(c1)sc1nc3ccncc3nc12"
  label: "inactive"
- molecule: "FC(F)(F)c1cc(NC(=S)N2c3ccccc3-n3cccc3C2c2cccnc2)cc(C(F)(F)F)c1 (stereo not given)"
  label: "inactive"
- molecule: "CC(C)=CC(=O)O[C@@H]1CC(C)(C)CC2C3=CCC4[C@]56CC[C@](O)(OC5)C(C)(C)C6CC[C@@]4(C)C3(C)CC[C@]21C(=O)O (stereo not given in full)"
  label: "active"

* * *

procedure details: NCI Yeast Anticancer Drug Screen. Data for the bub3 strain (AID 167)
condition set: S. cerevisiae bub3 mutant strain, at 11.0 µM, stronger effect = higher value
The panel holds about 79,000 compounds, 15% with a hit somewhere; the sample as a whole holds those more often.

- compound: "O=c1c2ccccc2ncn1COCc1ccccc1"
  unit abbrev: "%"
  growth inhibition: -7
- compound: "O=[N+]([O-])c1ccc([N+]2=NC(c3ccccc3)=NN(c3ccccc3)C2)cc1"
  unit abbrev: "%"
  growth inhibition: 12
- compound: "O=C(NC(Nc1ccc(F)c(Cl)c1)(C(F)(F)F)C(F)(F)F)C(C(F)(F)F)C(F)(F)F"
  unit abbrev: "%"
  growth inhibition: 80
- compound: "CCCCCCCCCCCCCCCCCCOCC(O)COP(=O)(O)OCC1OC(n2cc(F)c(=O)[nH]c2=O)CC1O (stereo not given)"
  unit abbrev: "%"
  growth inhibition: 1
- compound: "Cc1ccc(S(=O)(=O)NC(=O)NC2=NC(C)(C)N(c3ccc(Cl)c(Cl)c3)C(N)=N2)cc1"
  unit abbrev: "%"
  growth inhibition: -6
